For each record, write down the corresponding ka.
biological target: T1, htau40 (Homo sapiens, UniProt P10636); assay: Biacore X100 SPR kinetics of anti-tau mAbs on immobilised htau40; assay type: binding; conditions: Table 27; mAb format, immobilised htau40
T1 construct: Full length tau (hT40)
T1 sequence (P10636 1-441 isoform P10636-8): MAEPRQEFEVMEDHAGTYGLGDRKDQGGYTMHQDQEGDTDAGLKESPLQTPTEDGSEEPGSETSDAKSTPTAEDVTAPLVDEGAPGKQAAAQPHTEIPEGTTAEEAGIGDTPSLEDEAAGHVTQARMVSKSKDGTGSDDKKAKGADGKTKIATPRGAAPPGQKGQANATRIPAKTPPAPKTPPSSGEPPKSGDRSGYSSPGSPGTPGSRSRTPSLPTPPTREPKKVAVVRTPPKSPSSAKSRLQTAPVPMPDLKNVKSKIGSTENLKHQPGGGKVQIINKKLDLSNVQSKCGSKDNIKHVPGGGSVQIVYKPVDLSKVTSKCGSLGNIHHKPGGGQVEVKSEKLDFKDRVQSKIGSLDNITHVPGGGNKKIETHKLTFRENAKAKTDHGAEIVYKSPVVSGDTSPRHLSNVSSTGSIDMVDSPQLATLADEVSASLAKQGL
State the value with its unit after it.

Ask: Fill in: ka of S1D12: sheep-derived anti-tau core clone; scFv SEQ ID NO: 32, VH 443, VL 444 (protein, S1D12 amino acid sequence) scFv: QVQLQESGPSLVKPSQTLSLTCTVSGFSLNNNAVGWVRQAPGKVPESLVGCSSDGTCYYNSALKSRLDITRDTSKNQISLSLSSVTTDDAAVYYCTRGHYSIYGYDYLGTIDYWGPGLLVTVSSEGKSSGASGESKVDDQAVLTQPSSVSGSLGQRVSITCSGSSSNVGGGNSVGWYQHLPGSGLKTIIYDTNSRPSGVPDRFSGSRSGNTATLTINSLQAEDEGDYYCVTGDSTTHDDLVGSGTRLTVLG is ___
Reply: 405800 M⁻¹ s⁻¹

Ask: ka lookup needed for CC7: human-specific anti-tau clone, Table 10; SEQ ID NO: 365 (protein, CC7 amino acid sequence) scFv: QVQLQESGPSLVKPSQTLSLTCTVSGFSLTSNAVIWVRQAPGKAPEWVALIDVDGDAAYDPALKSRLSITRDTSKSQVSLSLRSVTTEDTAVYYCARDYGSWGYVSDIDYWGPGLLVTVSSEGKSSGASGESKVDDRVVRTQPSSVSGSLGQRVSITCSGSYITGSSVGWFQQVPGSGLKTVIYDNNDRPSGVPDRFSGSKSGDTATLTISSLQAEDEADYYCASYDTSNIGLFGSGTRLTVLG , thanks.
Reply: 4.576e+06 M⁻¹ s⁻¹

Ask: Fill in: ka of CE3: anti-tau core clone, Table 10; SEQ ID NO: 367 (protein, CE3 amino acid sequence) scFv: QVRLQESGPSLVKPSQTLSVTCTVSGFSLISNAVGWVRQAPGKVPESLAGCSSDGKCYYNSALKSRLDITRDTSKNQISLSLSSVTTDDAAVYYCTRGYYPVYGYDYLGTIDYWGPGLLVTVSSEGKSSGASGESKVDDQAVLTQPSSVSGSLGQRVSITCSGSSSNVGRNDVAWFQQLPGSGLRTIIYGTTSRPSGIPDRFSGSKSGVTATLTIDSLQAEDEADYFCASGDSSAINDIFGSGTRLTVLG is ___
Reply: 103000 M⁻¹ s⁻¹

Ask: Sample S1G2: sheep-derived anti-tau core clone; scFv SEQ ID NO: 81, VH 455, VL 456 (protein, S1G2 amino acid sequence) scFv: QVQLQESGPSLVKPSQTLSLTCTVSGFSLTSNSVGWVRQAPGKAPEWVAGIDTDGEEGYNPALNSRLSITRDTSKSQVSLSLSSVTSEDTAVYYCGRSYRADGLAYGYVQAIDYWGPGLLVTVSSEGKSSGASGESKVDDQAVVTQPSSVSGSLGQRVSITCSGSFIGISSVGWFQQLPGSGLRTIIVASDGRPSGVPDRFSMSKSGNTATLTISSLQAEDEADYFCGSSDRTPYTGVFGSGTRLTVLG — what was its ka?
Reply: 339800 M⁻¹ s⁻¹

Ask: Give the measured ka of NS2A1: anti-tau clone, Table 11; SEQ ID NO: 220 (protein, NS2A1 amino acid sequence) scFv: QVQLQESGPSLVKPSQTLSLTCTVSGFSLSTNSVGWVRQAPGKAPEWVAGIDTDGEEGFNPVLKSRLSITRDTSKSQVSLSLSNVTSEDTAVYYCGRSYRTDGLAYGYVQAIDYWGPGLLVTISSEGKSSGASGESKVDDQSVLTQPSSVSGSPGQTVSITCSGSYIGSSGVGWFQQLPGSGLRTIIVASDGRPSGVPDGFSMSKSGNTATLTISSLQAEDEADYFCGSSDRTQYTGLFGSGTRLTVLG .
Reply: 893700 M⁻¹ s⁻¹
